# MIC listing for each entry below
System: Mycobacterium tuberculosis
Experiment: Antibacterial activity against drug-resistant Mycobacterium tuberculosis isolate 1 after 7 days by resazurin microtiter assay
Type: functional
Conditions: isolate 1, 168 h
Note: unit µM is implicit; provide only the numeric part.

Example results:
CCOC(=O)c1c(C)oc2nc(N3CCCC3)ccc12	18.1
COc1c(N2C[C@@H]3CCCN[C@@H]3C2)c(F)cc2c(=O)c(C(=O)O)cn(C3CC3)c12	0.3

Attention now turns to another entry.
Lookup: Which MIC value is on record for `N[C@@H]1CONC1=O` ?
Found: 242
